Reference for the values: patent US10294202B2

Test system: morningglory
Test: Test C pre-/postemergence herbicide test
Assay type: in vivo, Ipomoea coccinea
Details: Preemergence, 62 g ai/ha; scale 0 to 100 (0 no effect, 100 complete control)
# Morningglory plant response rating values compiled below

| Compound | Morningglory plant response rating |
| --- | --- |
| O=C1NCC(c2cccc(C(F)(F)F)c2)C1C(=O)Nc1ccc(F)cc1F (racemic) | 0 |
| O=C1NCC(c2cccc(OC(F)F)c2)C1C(=O)Nc1ccccc1F (stereo not drawn) | 0 |
| O=C1NCC(c2cccc(C(F)(F)F)c2)C1C(=O)Nc1ccc(F)c(F)c1F (stereo not drawn) | 25 |
| O=C1NCC(c2ccc(C(F)(F)F)nc2)C1C(=O)Nc1ccccc1F (racemic) | 0 |
| CN1CC(c2ccc(F)cc2)C(C(=O)Nc2cccc(F)c2F)C1=O (stereo not drawn) | 10 |
| O=C1NCC(c2ccc(C(F)(F)F)nc2)C1C(=O)Nc1cccc(F)c1F (racemic) | 0 |
| O=C1NCC(c2ccc(C(F)(F)F)cc2)C1C(=O)Nc1ccccc1Cl (stereo not drawn) | 0 |
| O=C1NCC(c2cccc(OC(F)F)c2)C1C(=O)Nc1ccc(F)c(F)c1F (stereo not drawn) | 30 |
| CN1CC(c2cccc(C(F)(F)F)c2)C(C(=O)Nc2ccccc2F)C1=O (stereo not drawn) | 0 |
